Molecular target: T1, human calcitonin receptor (human, UniProt P30988 25-474)
T1 sequence (looked up): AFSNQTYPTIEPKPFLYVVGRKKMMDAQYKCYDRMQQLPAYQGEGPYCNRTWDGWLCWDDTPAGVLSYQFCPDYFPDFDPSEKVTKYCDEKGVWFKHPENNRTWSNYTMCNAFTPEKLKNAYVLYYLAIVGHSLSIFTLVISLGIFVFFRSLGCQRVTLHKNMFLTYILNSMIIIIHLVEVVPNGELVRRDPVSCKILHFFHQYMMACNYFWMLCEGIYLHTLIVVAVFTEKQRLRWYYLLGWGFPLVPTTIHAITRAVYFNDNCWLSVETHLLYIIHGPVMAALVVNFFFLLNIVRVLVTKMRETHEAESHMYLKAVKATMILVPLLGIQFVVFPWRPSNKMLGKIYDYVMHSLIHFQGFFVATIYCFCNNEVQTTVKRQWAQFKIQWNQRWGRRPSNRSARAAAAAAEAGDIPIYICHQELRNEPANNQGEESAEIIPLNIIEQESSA
Assay: cell-based or functional assay
Numbered stars: 1 amine (or outer) side, 2 acyl side, 3 side chain; on linkers, the order of the positions; unused ones are H or OH. Bridge positions count the residues as written; N and C are the ends. Side chains are listed from the residue outwards. Ends that are not written are not given here. * marks the point of attachment. C20 diacid = O=C(O)CCCCCCCCCCCCCCCCCCC(=O)*; γGlu = O=C(O)[C@H](CCC(=O)[*:2])N[*:1]; AEEA = NCCOCCOCC(=O)O
// classify: if (hCTR funct. EC50 < 3 nM) 1 (yes) else 0 (no)

>>> discrete_label("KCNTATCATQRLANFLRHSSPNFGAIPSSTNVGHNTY (alpha-amino group of N-terminal Lys1 acylated with C20 diacid via gGlu linker; disulfide Cys2-Cys7; C-terminal amide, h-amylin derivative; disulfide bridge and C-terminal amide as told for human amylin; also called compound 40) [N^α1-[(4S)-4-carboxy-4-(19-carboxynonadecanoylamino)butanoyl]-[Arg17,Pro21,Pro27,His34]-h-amylin]")
"1 (yes)"
>>> discrete_label("K([AEEA-γGlu-C20 diacid])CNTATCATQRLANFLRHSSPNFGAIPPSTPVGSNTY-NH2 (disulfide 2-7, h-amylin derivative; disulfide bridge and C-terminal amide as told for human amylin; also called compound 53)")
"1 (yes)"
>>> discrete_label("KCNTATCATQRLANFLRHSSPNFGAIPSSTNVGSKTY (alpha-amino group of N-terminal Lys1 acylated with C20 diacid via gGlu linker; disulfide Cys2-Cys7; C-terminal amide, h-amylin derivative; disulfide bridge and C-terminal amide as told for human amylin; also called compound 34) [N^α1-[(4S)-4-carboxy-4-(19-carboxynonadecanoylamino)butanoyl]-[Arg17,Pro21,Pro27,Lys35]-h-amylin]")
"1 (yes)"
>>> discrete_label("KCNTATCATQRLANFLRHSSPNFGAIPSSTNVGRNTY (alpha-amino group of N-terminal Lys1 acylated with C20 diacid via gGlu linker; disulfide Cys2-Cys7; C-terminal amide, h-amylin derivative; disulfide bridge and C-terminal amide as told for human amylin; also called compound 39) [N^α1-[(4S)-4-carboxy-4-(19-carboxynonadecanoylamino)butanoyl]-[Arg17,Pro21,Pro27,Arg34]-h-amylin]")
"1 (yes)"
>>> discrete_label("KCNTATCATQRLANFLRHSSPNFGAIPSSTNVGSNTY (alpha-amino group of N-terminal Lys1 acylated with C20 diacid via gGlu-2xOEG linker; disulfide Cys2-Cys7; C-terminal amide, h-amylin derivative; disulfide bridge and C-terminal amide as told for human amylin; also called compound 24)")
"0 (no)"
>>> discrete_label("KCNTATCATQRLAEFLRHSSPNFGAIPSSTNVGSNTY (alpha-amino group of N-terminal Lys1 acylated with C20 diacid via gGlu-2xOEG linker; disulfide Cys2-Cys7; C-terminal amide, h-amylin derivative; disulfide bridge and C-terminal amide as told for human amylin; also called compound 19)")
"0 (no)"
